tested on: human recombinant LPA1 Lysophospholipid receptor (Homo sapiens)
Sequence (Q92633 whole entry): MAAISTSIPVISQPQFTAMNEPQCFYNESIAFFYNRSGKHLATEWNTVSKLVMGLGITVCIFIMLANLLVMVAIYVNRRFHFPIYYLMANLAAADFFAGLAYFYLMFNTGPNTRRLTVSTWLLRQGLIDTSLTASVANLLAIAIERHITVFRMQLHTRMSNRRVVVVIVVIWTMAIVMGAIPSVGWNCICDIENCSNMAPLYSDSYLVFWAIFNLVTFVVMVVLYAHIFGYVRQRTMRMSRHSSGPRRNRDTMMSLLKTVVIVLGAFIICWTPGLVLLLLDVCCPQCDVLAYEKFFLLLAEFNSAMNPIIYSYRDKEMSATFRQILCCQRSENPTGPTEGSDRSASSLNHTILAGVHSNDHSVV
assay overview: Calcium flux assay using FLIPR, LPA1R antagonist activity
conditions used: ChemiScreen calcium-optimized stable cell line, FLIPR calcium flux, antagonist mode
pIC50: −log10 of the molar value.
measurement kind: pIC50

> print(dat)
                                   compound  test.value
1  COc1ccc(-c2cnn(C)c2NC(=O)O[C@H](C)c2ccccc2)cc1      < 4.52
2  CC(OC(=O)Nc1c(-c2ccccc2F)cnn1C)c1cccc(C(F)(F)F)c1 (racemic)        4.61
3  Cn1ncc(-c2ccc(-c3ccc(C4(C(=O)O)CC4)cc3)cc2)c1NC(=O)OC1COC1      < 4.52
4  C[C@@H](OC(=O)Nc1c(-c2ccc(-c3ccccc3)cc2)cnn1C)c1ccccc1      < 4.52

---

Here, each record is paired with measured IC50 data.
tested on: human recombinant LPA1 Lysophospholipid receptor (Homo sapiens)
assay overview: Calcium flux assay using FLIPR, LPA1R antagonist activity
conditions used: ChemiScreen calcium-optimized stable cell line, FLIPR calcium flux, antagonist mode
measurement kind: IC50 (µM)

> print(dat)
                                   compound  unit.abbrev  operator.symbol  test.value
1  C[C@@H](CC(=O)Nc1c(-c2ccc(-c3ccc(C4(C(=O)O)CC4)cc3)cc2)cnn1C)c1ccccc1           µM                =        0.88
2  C[C@@H](OC(=O)Nc1c(-c2ccc(-c3ccc(C4(C(=O)O)CC4)cc3)cc2)cnn1C)c1ccccc1F           µM                =       0.024
3  C[C@@H](OC(=O)Nc1c(-c2ccc(CC(=O)O)cc2)cnn1C)c1ccccc1           µM                >          30
4  C[C@H](OC(=O)Nc1c(-c2ccccc2F)cnn1C)c1ccccc1Cl           µM                >          30
5  CC(OC(=O)Nc1c(-c2ccc(F)cc2)cnn1C)c1ccccc1Cl (stereo not shown)           µM                =        3.93
6  C[C@@H](OC(=O)Nc1c(-c2ccc(C3(C(=O)O)CC3)cc2)cnn1C)c1ccccc1           µM                >          30
7  C[C@@H](OC(=O)Nc1c(-c2ccccc2F)cnn1C)c1cccc(C(F)(F)F)c1           µM                >          30
